Here we list molecules with their recorded IC50 when tested on Protein-glutamine gamma-glutamyltransferase (Cavia porcellus, UniProt Q7M0F8).
Sequence (Q7M0F8 whole entry): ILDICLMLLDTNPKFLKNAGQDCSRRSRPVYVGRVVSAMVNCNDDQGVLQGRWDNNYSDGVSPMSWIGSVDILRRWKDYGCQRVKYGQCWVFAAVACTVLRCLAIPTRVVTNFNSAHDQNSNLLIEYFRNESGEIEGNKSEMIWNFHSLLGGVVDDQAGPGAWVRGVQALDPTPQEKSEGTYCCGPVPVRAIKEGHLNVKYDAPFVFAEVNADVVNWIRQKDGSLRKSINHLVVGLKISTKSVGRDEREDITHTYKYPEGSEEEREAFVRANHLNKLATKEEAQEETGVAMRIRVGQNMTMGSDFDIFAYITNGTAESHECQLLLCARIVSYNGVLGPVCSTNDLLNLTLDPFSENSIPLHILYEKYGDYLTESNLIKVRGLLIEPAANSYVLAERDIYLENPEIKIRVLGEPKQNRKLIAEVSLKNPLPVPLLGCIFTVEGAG
// note: answer is a bare numeric in µM

See these solved cases before continuing.
CC(C)(C)N(CCC(=O)c1ccc(C#N)cc1)Cc1ccccc1 ... 1.7
O=C(CCN(CCO)Cc1ccccc1)c1ccc(Cl)s1 ... 1.5
CC(C)(C)N(CCC(=O)c1nccs1)Cc1ccccc1 ... 1.4
CCN(CCC(=O)c1ccc(F)cc1)Cc1ccccc1 ... 13

The value of IC50 recorded for `CC(C)(C)N(CCC(=O)c1ccccc1)Cc1ccccc1` when tested on Protein-glutamine gamma-glutamyltransferase (Cavia porcellus, UniProt Q7M0F8) reads 1.7

The measured IC50 that `CC(C)N(CCO)CCC(=O)c1cccs1` showed for Protein-glutamine gamma-glutamyltransferase (Cavia porcellus, UniProt Q7M0F8) is 6.5
